System: SKOV-3 ovarian carcinoma cells
Assay: MTT-based cytotoxicity assay, SKOV-3
Assay type: cell-based
Conditions: Homo sapiens, SK-OV-3, 48 h
pIC50: −log10 of the molar value.
MEASURED_QUANTITY: pIC50

In plain terms, "O=C(COc1ccc([N+](=O)[O-])c(F)c1)Nc1ccccc1[N+](=O)[O-]" has a documented pIC50 of < 4.40

---

MEASURED_QUANTITY: melting point

Consider the reported melting point for these compounds:
N#Cc1ccccc1NC(=O)COc1ccc([N+](=O)[O-])c(F)c1 [Compound 3j]
172 to 174 °C
O=C(COc1ccc([N+](=O)[O-])c(F)c1)Nc1ccccc1C(F)(F)F [Compound 3k]
146 to 147 °C
O=C(COc1ccc([N+](=O)[O-])c(F)c1)Nc1ccc(Br)cc1F [Compound 3c]
160 to 162 °C

Turning now to a further compound:
In plain terms, O=C(COc1ccc([N+](=O)[O-])c(F)c1)Nc1cccc(Cl)c1 [Compound 3a] has a documented melting point of 150 to 151 °C

---

Tested on: Hela Henrietta Lacks strain cancer cells
Assay: MTT-based cytotoxicity assay, Hela
Format: cell-based
Conditions: Homo sapiens; Hela; MTT, 48 h treatment; means ± SEM of three independent experiments; read-out: IC50
This listing pairs molecules with measured pIC50.
Units for pIC50: none; it is -log10 of a concentration expressed in mol/L.

Consider the reported pIC50 for these molecules:
O=C(COc1ccc([N+](=O)[O-])c(F)c1)Nc1cc(C(F)(F)F)cc(C(F)(F)F)c1 [Compound 3g]
4.70
O=C(COc1ccc([N+](=O)[O-])c(F)c1)Nc1ccc(C(F)(F)F)cc1 [Compound 3o]
4.47

Turning now to a further molecule:
Record O=C(COc1ccc([N+](=O)[O-])c(F)c1)Nc1ccc(Cl)c(C(F)(F)F)c1 [Compound 3d] ; system Hela Henrietta Lacks strain cancer cells; pIC50 = 4.48

---

This listing pairs molecules with measured melting point.

In plain terms, "Cc1ccc([N+](=O)[O-])cc1NC(=O)COc1ccc([N+](=O)[O-])c(F)c1" has a documented melting point of 211 to 213 °C

In plain terms, "O=C(COc1ccc([N+](=O)[O-])c(F)c1)Nc1ccc(OC(F)(F)F)cc1" has a documented melting point of 146 to 148 °C

In plain terms, "O=C(COc1ccc([N+](=O)[O-])c(F)c1)Nc1ccc(C(F)(F)F)cc1" has a documented melting point of 173 to 175 °C

In plain terms, "O=C(COc1ccc([N+](=O)[O-])c(F)c1)Nc1cccc([N+](=O)[O-])c1" has a documented melting point of 199 to 201 °C

In plain terms, "O=C(COc1ccc([N+](=O)[O-])c(F)c1)Nc1ccccc1[N+](=O)[O-]" has a documented melting point of 201 to 202 °C

In plain terms, "O=C(COc1ccc([N+](=O)[O-])c(F)c1)Nc1ccc(Br)cc1" has a documented melting point of 166 to 167 °C

In plain terms, "O=C(COc1ccc([N+](=O)[O-])c(F)c1)Nc1cc(C(F)(F)F)cc(C(F)(F)F)c1" has a documented melting point of 168 to 169 °C

In plain terms, "O=C(COc1ccc([N+](=O)[O-])c(F)c1)Nc1ccc(Cl)c(Cl)c1" has a documented melting point of 175 to 176 °C

In plain terms, "O=C(COc1ccc([N+](=O)[O-])c(F)c1)Nc1ccc(F)c(Cl)c1" has a documented melting point of 166 to 167 °C
